# testSystem: T1, 4H3782-bH
# T1 chain: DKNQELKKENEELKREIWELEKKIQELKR
# measurementProtocol: two-hybrid library CCNG1;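 further: natural log of median RNA to DNA barcode read ratio; higher means stronger binding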
Each entry below carries its reported interaction score.

| binder | interaction score |
| --- | --- |
| DKNQELEKKIEELERENWELKKEIQELKR [4H3354-bH] | -0.062 |
| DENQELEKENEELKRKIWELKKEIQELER [4H1257-bH] | 0.911 |
| DEIQELEKKIEELKRKNWELEKEIQELKR [4H370-bH] | 0.858 |
| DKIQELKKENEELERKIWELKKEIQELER [4H2729-bH] | 0.82 |
| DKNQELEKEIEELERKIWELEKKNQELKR [4H3112-bH] | 0.0549 |
| DKIQELKKENEELEREIWELKKEIQELER [4H2697-bH] | 0.502 |
| DKIQELKKEIEELERKNWELEKEIQELKR [4H2610-bH] | -0.423 |
